Tested on: Escherichia coli
Assay Procedure: Antibacterial activity against Escherichia coli JM109 assessed as reduction in bacterial cell growth incubated for overnight by two-fold serial dilution method
Assay type: functional
Experimental Endpoint: MIC (µg/mL)
The reply should contain only the number, in µg/mL.

Compound: Cc1ccc(NCC(O)CN2CCN(c3cccc4c3CCC(=O)N4)CC2)cc1.Cl (racemic)
Value Measured: 128

Note: attention shifts to another entry.
Requested read-out: MIC. Entry: COc1ccccc1NCC(O)CN1CCN(c2cccc3c2CCC(=O)N3)CC1.Cl (racemic) 258

----------
Form field: MIC (one value per entry).
Test system: Escherichia coli
Assay Procedure: Antibacterial activity against Escherichia coli JM109 assessed as reduction in bacterial cell growth incubated for overnight by two-fold serial dilution method
Format: functional
Please give a number only; it is taken to be in µg/mL.

Molecule: Cl.O=C1CCc2c(cccc2N2CCN(CC(O)CNc3ccc(Cl)cc3)CC2)N1 (racemic)
Value Measured: 128
//
Molecule: Cl.O=C1CCc2c(cccc2N2CCN(C[C@@H](O)CNc3ccc(Cl)cc3)CC2)N1
Value Measured: 128
//
Molecule: COc1ccc(NC[C@H](O)CN2CCN(c3cccc4c3CCC(=O)N4)CC2)cc1.Cl
Value Measured: 32
//
Molecule: Cl.O=C1CCc2c(cccc2N2CCN(CC(O)CN3CCCCC3)CC2)N1 (racemic)
Value Measured: 128
//
Molecule: Cl.O=C1CCc2c(cccc2N2CCN(CC(O)CN3CCOCC3)CC2)N1 (racemic)
Value Measured: 128

Query: MIC; subject: CCCCNC[C@H](O)CN1CCN(c2cccc3c2CCC(=O)N3)CC1.Cl 128

Can you check Cl.O=C1CCc2c(cccc2N2CCN(CC(O)CNc3ccccc3)CC2)N1 (racemic) next? 256
